Test system: LXRb:RXRa (NR concentration 270 nM, RXRa partner concentration 90 nM)
Experiment: PBM binding z-score (relative to random genomic background probes); higher = stronger binding; sequences stand for … in GC…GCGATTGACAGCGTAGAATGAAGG
Observed property: PBM binding z-score

Prompt: Form entry - test system: LXRb:RXRa (NR concentration 270 nM, RXRa partner concentration 90 nM); read-out: PBM binding z-score; sequence: AGAATGAGGTCACCAAAGATCAGGGAAACGCTTG
Response: 5.13

Prompt: Moving on to the next sequence: CGAACTAGGTCATTGACAGGACAATGAATAGTAA
Response: 2.47
